Ref: paper PMC9264368

testedSystem: Notum (Homo sapiens, UniProt Q6P988, C330S)
Sequence (Q6P988 81-451 C330S): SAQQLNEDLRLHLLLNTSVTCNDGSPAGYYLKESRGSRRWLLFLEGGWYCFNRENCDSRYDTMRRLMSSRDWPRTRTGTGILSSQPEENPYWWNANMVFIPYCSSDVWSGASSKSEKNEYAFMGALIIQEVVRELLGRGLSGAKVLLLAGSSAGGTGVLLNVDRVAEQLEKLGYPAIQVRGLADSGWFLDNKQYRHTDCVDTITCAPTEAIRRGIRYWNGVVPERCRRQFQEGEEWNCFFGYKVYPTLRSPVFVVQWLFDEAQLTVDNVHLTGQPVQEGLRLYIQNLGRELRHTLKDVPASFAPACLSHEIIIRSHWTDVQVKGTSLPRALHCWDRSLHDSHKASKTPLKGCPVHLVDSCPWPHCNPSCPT
conditionSet: supplementary CSV
observable: LLE

>  <compound>
O=C(NCCc1ccc(O)cc1)c1ccccn1

>  <testedSystem>
Notum (Homo sapiens, UniProt Q6P988, C330S)

>  <LLE>
1.2

$$$$

P. NNC(=O)c1ccccc1OCc1ccccc1
Q. N#Cc1ccc(Cn2cnc3ccccc32)cc1
R. COc1ccc(-c2cc[nH]n2)c(O)c1
Please put the entries in order of rising LLE. Could you list the labels in the order requested? Q, P, R

----------
testedSystem: Notum (Homo sapiens, UniProt Q6P988, C330S)
assayDetails: biochemical
conditionSet: Notum IC50, OPTS substrate; 10-point curves 30 nM to 1 mM; mean ± s.d. of N = 2–4 unless stated; Table 1 and figures
observable: IC50 (µM)

# example entries with known answers
>  <compound>
Cc1cccc2[nH]c(NC#N)nc12 [15a]

>  <IC50 [µM]>
0.94

$$$$
>  <compound>
CC(=O)Nc1cccc2nonc12 [compound 2]

>  <IC50 [µM]>
140

$$$$
>  <compound>
CC(=O)Nc1ccc2nsnc2c1 [compound 58]

>  <IC50 [µM]>
390

$$$$
>  <compound>
N#Cc1ccc(Cn2cnc3ccccc32)cc1 [compound 12, 4-(Benzimidazol-1-ylmethyl)benzonitrile]

>  <IC50 [µM]>
570

$$$$
>  <compound>
FC(F)(F)c1cc(-c2cc[nH]n2)ccc1Cl [16a]

>  <IC50 [µM]>
1.4

$$$$

a. c1ccc(CNCc2ccc3c(c2)OCO3)nc1 [compound 28]
b. FC(F)(F)c1cc(CNCc2ccc3c(c2)OCO3)ccc1Cl [28a]
Could you check which of a and b has a smaller value for IC50? Respond using the label that marks the chosen record. b
(b: 16 µM, a: 54 µM)

1. Cn1nc(O)cc1Nc1ccccc1 [compound 49]
2. Oc1c(F)cc(F)cc1-c1cc[nH]n1 [compound 16]
3. COCC(=O)Nc1nc(-c2ccccc2)cs1 [compound 35]
4. CCn1c(NC(C)=O)nc2ccccc21 [compound 57]
Could you please order the items by IC50, going from the lowest number to the highest? Write the labels out in the order the request specifies. 2, 3, 4, 1

A. Nc1ccccc1Nc1ccccn1 [compound 33]
B. Cl.Oc1c(CN2CCOCC2)ccc2ccccc12 [compound 37]
C. C[C@H]1CCCCN1C(=O)N1CCOCC1 [compound 19]
Arrange these 3 compounds in increasing order of IC50. List labels; respect the requested ordering. B, A, C
(B: 58 µM, A: 500 µM, C: 750 µM)

P. COc1cc(-c2ccccc2)nc(N)n1 [compound 46]
Q. O=C(NCCc1ccc(O)cc1)c1ccccn1 [compound 45]
R. CCc1ccc(OCC(=O)N2CCCCC2)cc1 [compound 31]
Ascending by IC50, please: list the compounds accordingly. Lab note: final answer is the ordered label list. R, P, Q

----------
testedSystem: Notum (Homo sapiens, UniProt Q6P988, C330S)
assayDetails: biochemical
conditionSet: pIC50, Table 1, Notum OPTS assay
observable: IC50 (µM)

Known IC50 results, listed for orientation:
>  <molecularString>
CCn1c(NC(C)=O)nc2ccccc21

>  <testedSystem>
Notum (Homo sapiens, UniProt Q6P988, C330S)

>  <IC50 (µM)>
316

$$$$
>  <molecularString>
COc1ccc(-c2cc[nH]n2)c(O)c1

>  <testedSystem>
Notum (Homo sapiens, UniProt Q6P988, C330S)

>  <IC50 (µM)>
31.6

$$$$
>  <molecularString>
CCOc1cccc(-c2nnc(N)s2)c1

>  <testedSystem>
Notum (Homo sapiens, UniProt Q6P988, C330S)

>  <IC50 (µM)>
100

$$$$

A. Nc1nonc1N1CCCCC1
B. Oc1c(F)cc(F)cc1-c1cc[nH]n1
C. Cn1nc(O)cc1Nc1ccccc1
rank_up(items): orders items by reported IC50 in ascending numerical order. Use the labels to give the requested order. B, A, C

----------
testedSystem: Notum (Homo sapiens, UniProt Q6P988, C330S)
Sequence (Q6P988 81-451 C330S): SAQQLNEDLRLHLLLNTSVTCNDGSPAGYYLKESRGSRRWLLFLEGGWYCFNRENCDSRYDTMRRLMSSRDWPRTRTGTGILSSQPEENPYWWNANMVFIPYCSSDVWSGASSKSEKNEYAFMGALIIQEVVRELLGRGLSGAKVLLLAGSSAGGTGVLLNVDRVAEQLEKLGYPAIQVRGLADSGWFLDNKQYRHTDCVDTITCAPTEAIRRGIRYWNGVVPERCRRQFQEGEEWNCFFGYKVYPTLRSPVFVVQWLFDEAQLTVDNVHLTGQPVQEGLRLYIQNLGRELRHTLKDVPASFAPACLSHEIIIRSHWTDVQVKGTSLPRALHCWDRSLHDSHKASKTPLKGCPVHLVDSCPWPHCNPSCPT
assayDetails: biochemical
conditionSet: Notum IC50, OPTS substrate; 10-point curves 30 nM to 1 mM; mean ± s.d. of N = 2–4 unless stated; Table 1 and figures
pIC50: −log10 of the molar value.
observable: pIC50

>  <molecule>
Cc1nc2ccccn2c1C(=O)NCC(C)C

>  <result>
3.15

$$$$
>  <molecule>
Nc1ccc(NCc2cccnc2)c(C(=O)O)c1

>  <result>
4.20

$$$$
>  <molecule>
COc1ccc(CNC(=O)[C@@H]2CCCO2)cc1

>  <result>
4.06

$$$$
>  <molecule>
Cc1ccc(C)c(OC(=O)c2ccncc2)c1

>  <result>
4.44

$$$$
>  <molecule>
c1cnc(Oc2ccc(-c3cc[nH]n3)cc2)nc1 [compound 5, 2-[4-(1H-Pyrazol-3-yl)phenoxy]pyrimidine]

>  <result>
3.32

$$$$
>  <molecule>
NCc1cc(-c2ccccc2)no1

>  <result>
4.92

$$$$

I. Cc1ccccc1CNc1nnnn1C
II. COc1ccc(-c2cc[nH]n2)c(O)c1
Lab log: flag the item ( I or II ) with the smaller pIC50 figure. Indicate which entry you chose by stating its label. I

----------
testedSystem: Notum (Homo sapiens, UniProt Q6P988, C330S)
conditionSet: LLE = pIC50 – clogP
observable: LLE (lipophilic ligand efficiency)

>  <molecularString>
c1cc2c(cc1CNC[C@H]1CCCO1)OCO2

>  <testedSystem>
Notum (Homo sapiens, UniProt Q6P988, C330S)

>  <result>
0.9

$$$$

A. Nc1nonc1N1CCCCC1
B. OCc1ccc(-n2cnc3ccccc32)cc1
Of A and B , which carries the smaller reported LLE (lipophilic ligand efficiency) figure? I would appreciate it if you answered with the label of your choice. B

----------
testedSystem: Notum (Homo sapiens, UniProt Q6P988, C330S)
conditionSet: LLE = pIC50 – clogP
observable: LLE (lipophilic ligand efficiency)

>  <compound>
CCOc1cccc(-c2nnc(N)s2)c1

>  <LLE (lipophilic ligand efficiency)>
1.8

$$$$
>  <compound>
c1cnc(Oc2ccc(-c3cc[nH]n3)cc2)nc1 [compound 5, 2-[4-(1H-Pyrazol-3-yl)phenoxy]pyrimidine]

>  <LLE (lipophilic ligand efficiency)>
1.3

$$$$
>  <compound>
N#CCN1CCN(c2cccc(Cl)c2)CC1

>  <LLE (lipophilic ligand efficiency)>
0.7

$$$$
>  <compound>
C[C@@H](Oc1ccc(-c2ccccc2)cc1)C(=O)O

>  <LLE (lipophilic ligand efficiency)>
0.2

$$$$
>  <compound>
Nc1ccccc1OCc1ccccc1

>  <LLE (lipophilic ligand efficiency)>
0.6

$$$$

1. COc1cc(-c2ccccc2)nc(N)n1
2. CC(=O)Nc1ccc2nsnc2c1
3. c1ccc(CNCc2ccc3c(c2)OCO3)nc1
Ranking field: LLE (lipophilic ligand efficiency); order: falling. A ranking is expressed here by listing the labels in the requested order. 3, 2, 1
(3: 3.2, 2: 1.4, 1: 0.7)

1. O=C(NCCc1ccc(O)cc1)c1ccccn1
2. COc1ccc(-c2cc[nH]n2)c(O)c1
Given the two records 1 and 2 , choose the one whose LLE (lipophilic ligand efficiency) value is lower. Reply with the label of the item you choose. 1
(1: 1.2, 2: 2.9)

a. CC(=O)Nc1ccc(Nc2ccccc2)cc1 [compound 25, N-(4-Anilinophenyl)acetamide]
b. N#CNc1nc2ccccc2[nH]1
Field: lower LLE (lipophilic ligand efficiency) | Options: a / b // respond with label for picked entry a
